Target sequence: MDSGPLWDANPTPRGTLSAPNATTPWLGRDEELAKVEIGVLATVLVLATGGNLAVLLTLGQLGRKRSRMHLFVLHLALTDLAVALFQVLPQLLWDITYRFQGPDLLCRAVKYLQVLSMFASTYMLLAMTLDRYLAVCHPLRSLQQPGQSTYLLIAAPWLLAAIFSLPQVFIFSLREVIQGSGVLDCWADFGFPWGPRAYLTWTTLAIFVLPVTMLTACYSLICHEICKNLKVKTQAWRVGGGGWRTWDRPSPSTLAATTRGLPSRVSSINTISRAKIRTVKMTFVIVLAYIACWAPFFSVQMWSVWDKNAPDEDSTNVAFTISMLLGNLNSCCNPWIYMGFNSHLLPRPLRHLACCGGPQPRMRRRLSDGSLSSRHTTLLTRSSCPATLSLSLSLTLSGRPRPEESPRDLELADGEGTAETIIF
pKi: −log10 of the molar value.
experimental readout: pKi

Batch of 4 compounds: report pKi for each.
1. CCOc1ccccc1C1(N2CCN(c3ccncc3)CC2)C(=O)N(S(=O)(=O)c2cccc3c(C)ccnc23)c2ccc(C#N)cc21 (single isomer, unassigned; (+)) [Example 63]
2. CCOc1ccc(C)cc1C1(N2CCN(c3ccncc3)CC2)C(=O)N(S(=O)(=O)c2ccc(OC)cn2)c2ccc(C#N)cc21 (racemic) [Example 169]
3. O=C1N(S(=O)(=O)c2cccc3cccnc23)c2ccc(Cl)cc2C1(c1ccccn1)N1CCN(c2ccncc2)CC1 (racemic) [Example 8]
4. COc1cccc(C2(N3CCN(c4ccncc4)CC3)C(=O)N(S(=O)(=O)c3cccc4cccnc34)c3ccc(Cl)cc32)c1OC (racemic) [Example 2]

result:
["> 8.00", "> 8.00", "7.30 to 8.00", "7.30 to 8.00"]
